# TEST NAME: reduction of Shn3 3'UTR firefly luciferase signal, primary screen, Schnurri-3 inhibitor project, cell-based, Clone20 osteoblasts, set 2 (AID 588674);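 also: 0% = median of neutral control wells and 100% = pilot-screen positive control compound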
# TEST SETTINGS: Clone20 osteoblast Shn3 3'UTR firefly luciferase, 24 h; at 12.5 µM
In all, about 360,000 compounds went through this assay and about 1,800 (0.5%) were called active.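 The calls were made as follows: active = mean inhibition of at least 75% with every replicate also reaching 75%; inconclusive = mean inhibition at least 75% but some replicate below; inactive = mean inhibition below 75%.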 What follows is part of a selection rich in actives, with near analogues and random picks from the rest.
Classes used: 1.0 for active, 0.0 for inactive

                                    compound  assigned_category
 0  Fc1cccc(Cc2c(-c3ccc(Cl)cc3)nc3ccc(Cl)cn23)c1                0.0
 1         Cc1cc(C)nc(S/C=C/C(=O)c2ccccc2)n1                1.0
 2        CC(C)(C)Nc1nc(-c2ccccn2)nc2ccccc12                1.0
 3  Cc1cc(=O)oc2cc(OC(C)C(=O)Nc3ccc(N4CCOCC4)cc3)ccc12 (stereo unspecified)                0.0
 4  CC1=CC(=O)C=CC1(C)C(Cl)(Cl)Cl (stereo unspecified)                0.0
 5  COc1cc(NC(=O)C2=C(C)OCCS2)c(Cl)cc1C(=O)NCCCN1CCCC(C)C1 (stereo unspecified)                0.0
 6      Cc1noc(COc2ccccc2OCc2onc(C)c2Cl)c1Cl                0.0
 7  Cn1c(=O)c2c(SCC(=O)NCC3CCCO3)nc(CC(C)(C)C)nc2n(C)c1=O (stereo unspecified)                0.0
 8  Cc1onc(-c2ccccc2Cl)c1C(=O)N(Cc1ccc(N(C)C)cc1)C(C)C                0.0
 9  COc1ccccc1C(=O)Nc1ccnn1C1CCN(C(=O)C(C)(C)C)CC1                0.0
10  COc1c(C=O)c(CCN(C)C(=O)c2ccc(F)cc2)cc2c1OCO2                0.0
